Recorded measurements of IC50, one per entry
assay: Concentration required to inhibit 50% activity of prostaglandin synthetase was determined in mouse vas deferens
measurement name: IC50

- COc1ccc(C(=O)c2c(C)n(CCN3CCOCC3)c3ccccc23)cc1: > 30 µM
- Cc1c(C(=O)c2cccc3ccccc23)c2ccccc2n1CCN1CCOC(O)C1 (stereo not drawn): 0.57 µM
- COc1ccc(C(=O)c2cn(CCN3CCOCC3)c3ccccc23)cc1: 5 µM

###

test: Concentration required to inhibit 50% activity of prostaglandin synthetase was determined in vitro in mouse brain microsomes
pIC50: −log10 of the molar value.
measurement name: pIC50

* COc1ccc(C(=O)c2cn(CCN3CCOCC3)c3ccccc23)cc1 | < 4.52

Origin of measurements: BindingDB's records for doi:10.1021/jm00107a034
